# IC50 annotations
target: β-lactamase of Enterobacter cloacae P99 (Enterobacter cloacae); experiment: β-lactamase inhibition, nitrocefin hydrolysis (P99); type: biochemical; conditions: 10 minute incubation of enzyme (2.56 nM) and inhibitor; nitrocefin substrate; read-out: IC50 (uM) Ent. cloacae P99

compound: COC(=O)/C=C1/C(=O)N2[C@@H](C(=O)O)[C@](C)(COC(=O)CSc3nnnn3C)S(=O)(=O)[C@H]12 [Compound 8h]
IC50: 3.69 µM
--
compound: COC(=O)C=C1C(=O)N2C(C(=O)O)C(C)(COC(C)=O)S(=O)(=O)C12 (stereo not shown) [Compound 8e]
IC50: 2.66 µM
--
compound: Cn1nnnc1SCC(=O)OCC1(C)C(C(=O)O)N2C(=O)C(=CC(=O)O)C2S1(=O)=O (stereo not shown) [Compound 8g]
IC50: 0.64 µM
--
compound: CC(C)(C)OC(=O)/C=C1/C(=O)N2[C@@H](C(=O)O)[C@](C)(CCl)S(=O)(=O)[C@H]12 [Compound 12a]
IC50: 7.62 µM

---

target: β-lactamase of Enterobacter cloacae P99 (Enterobacter cloacae, UniProt P05364); experiment: β-lactamase inhibition, nitrocefin hydrolysis (P99); assay type: biochemical; settings: 10 minute incubation of enzyme (2.56 nM) and inhibitor; nitrocefin substrate; read-out: IC50 (uM) Ent. cloacae P99
Sequence (P05364 21-381): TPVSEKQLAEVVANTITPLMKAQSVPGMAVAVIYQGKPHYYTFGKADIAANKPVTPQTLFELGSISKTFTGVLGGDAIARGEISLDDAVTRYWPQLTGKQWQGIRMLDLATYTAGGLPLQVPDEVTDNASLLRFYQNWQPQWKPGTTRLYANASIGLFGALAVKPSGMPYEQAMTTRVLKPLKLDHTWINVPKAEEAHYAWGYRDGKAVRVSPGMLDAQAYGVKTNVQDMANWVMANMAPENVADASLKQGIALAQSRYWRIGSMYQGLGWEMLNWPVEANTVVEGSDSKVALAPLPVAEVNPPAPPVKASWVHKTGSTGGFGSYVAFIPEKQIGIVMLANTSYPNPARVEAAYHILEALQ
# IC50 annotations
observed-property: IC50 (µM)

compound: CC1(COC(=O)Cc2ccc(O)c(O)c2)C(C(=O)O)N2C(=O)C(=CC(=O)O)C2S1(=O)=O (stereo not drawn) [Compound 8i]
number: 0.37
//
compound: C[C@]1(COC=O)[C@H](C(=O)O)N2C(=O)/C(=C/C(=O)O)[C@H]2S1(=O)=O [Compound 8c]
number: 0.3
//
compound: CC1(CCl)C(C(=O)O)N2C(=O)/C(=C/C(=O)O)C2S1(=O)=O (stereo not drawn) [Compound 12c]
number: 105

---

Target: β-lactamase of Enterobacter cloacae P99 (Enterobacter cloacae, UniProt P05364)
Assay: β-lactamase inhibition, nitrocefin hydrolysis (P99)
Format: biochemical
Conditions: 10 minute incubation of enzyme (2.56 nM) and inhibitor; nitrocefin substrate; read-out: IC50 (uM) Ent. cloacae P99
Protocol: The IC50 value of each compound was determined as follows. Following a 10 minute incubation of a dilute solution of enzyme (2.56 nM) and inhibitor (<0.64 μM), a 50 μL aliquot of the incubation mixture was further diluted into 1 mL nitrocefin (a substrate) solution, and the rate of hydrolysis was measured during a 1 minute period by monitoring the absorbance of nitrocefin as a function of time.

compound: C[C@]1(C=CC#N)[C@H](C(=O)O)N2C(=O)/C(=C/C(=O)O)[C@H]2S1(=O)=O (mixture of isomers) [Compound 17]
target-of-assay: β-lactamase of Enterobacter cloacae P99 (Enterobacter cloacae, UniProt P05364)
IC50, µM: 6.76
--
compound: CC(=O)OCC1(C)C(C(=O)O)N2C(=O)C(=Cc3ccccn3)C2S1(=O)=O (stereo not shown) [Compound 29a]
target-of-assay: β-lactamase of Enterobacter cloacae P99 (Enterobacter cloacae, UniProt P05364)
IC50, µM: 0.062
--
compound: CC(=O)OC[C@@]1(C)[C@H](C(=O)O)N2C(=O)/C(=C/C(=O)O)[C@H]2S1(=O)=O [Compound 8a]
target-of-assay: β-lactamase of Enterobacter cloacae P99 (Enterobacter cloacae, UniProt P05364)
IC50, µM: 0.383
--
compound: COC(=O)/C=C1/C(=O)N2[C@@H](C(=O)O)[C@](C)(CCl)S(=O)(=O)[C@H]12 [Compound 12b]
target-of-assay: β-lactamase of Enterobacter cloacae P99 (Enterobacter cloacae, UniProt P05364)
IC50, µM: 6.96

---

target: TEM-1 β-lactamase (Escherichia coli); assay: β-lactamase inhibition, nitrocefin hydrolysis (TEM-1); assay type: biochemical; settings: 10 minute incubation of enzyme (2.56 nM) and inhibitor; nitrocefin substrate; read-out: IC50 (uM) TEM-1
Sequence (P62593 24-286 limits assumed): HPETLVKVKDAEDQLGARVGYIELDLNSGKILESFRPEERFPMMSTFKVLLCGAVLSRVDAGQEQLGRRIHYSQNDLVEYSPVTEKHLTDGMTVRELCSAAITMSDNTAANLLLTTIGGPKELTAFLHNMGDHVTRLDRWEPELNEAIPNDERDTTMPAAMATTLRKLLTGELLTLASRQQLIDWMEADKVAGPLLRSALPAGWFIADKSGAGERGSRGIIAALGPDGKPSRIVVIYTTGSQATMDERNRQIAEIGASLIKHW
Please use yes (1) for IC50 under 0.2 µM and no (0) for everything else, ties included.

compound: CC1(CCl)C(C(=O)O)N2C(=O)/C(=C/C(=O)O)C2S1(=O)=O (stereo not drawn) [Compound 12c]
label-value: no (0)
--
compound: CC(C)(C)OC(=O)/C=C1/C(=O)N2[C@@H](C(=O)O)[C@](C)(CCl)S(=O)(=O)[C@H]12 [Compound 12a]
label-value: no (0)
--
compound: Cn1nnnc1SCC(=O)OCC1(C)C(C(=O)O)N2C(=O)C(=CC(=O)O)C2S1(=O)=O (stereo not drawn)
label-value: no (0)
--
compound: CC1(COC(=O)CCl)C(C(=O)O)N2C(=O)C(=CC(=O)O)C2S1(=O)=O (stereo not drawn)
label-value: yes (1)
--
compound: CC(=O)OC[C@@]1(C)[C@H](C(=O)O)N2C(=O)/C(=C/C(=O)O)[C@H]2S1(=O)=O
label-value: no (0)
--
compound: CC(=O)OCC1(C)C(C(=O)O)N2C(=O)C(=Cc3ccccn3)C2S1(=O)=O (stereo not drawn) [Compound 29a]
label-value: yes (1)

Provenance of the data: patent US7125986B2
